target: ERα (Homo sapiens, UniProt P03372); assay: ERE luciferase reporter gene assay in T47D-KBluc cells (target engagement); assay type: cell-based; parameters: T47D human breast cancer cells stably transfected with estrogen responsive element/promoter/luciferase reporter gene; host or cells: T47D-KBluc cells; settings: 10% FBS, 24 hours, Table 3 cereblon centric PROTACs, read-out: ER-α Luciferase IC50
Sequence (P03372 whole entry): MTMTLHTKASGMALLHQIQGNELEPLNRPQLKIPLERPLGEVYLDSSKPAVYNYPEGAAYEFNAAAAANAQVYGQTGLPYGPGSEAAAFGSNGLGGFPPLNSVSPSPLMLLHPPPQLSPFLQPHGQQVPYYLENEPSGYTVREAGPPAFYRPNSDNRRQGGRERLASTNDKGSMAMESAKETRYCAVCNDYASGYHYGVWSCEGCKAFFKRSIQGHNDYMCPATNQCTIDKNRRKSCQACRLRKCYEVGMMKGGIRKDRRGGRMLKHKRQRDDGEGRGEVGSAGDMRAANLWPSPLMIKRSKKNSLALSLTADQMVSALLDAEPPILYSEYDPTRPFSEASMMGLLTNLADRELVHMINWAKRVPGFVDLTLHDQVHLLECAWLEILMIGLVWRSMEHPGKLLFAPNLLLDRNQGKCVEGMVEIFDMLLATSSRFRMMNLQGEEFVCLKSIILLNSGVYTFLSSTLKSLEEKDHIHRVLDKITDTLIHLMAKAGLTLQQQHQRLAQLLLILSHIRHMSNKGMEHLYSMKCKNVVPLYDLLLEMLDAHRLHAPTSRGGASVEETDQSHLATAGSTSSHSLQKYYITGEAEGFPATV
recordedMetric: pIC50
Answers are plain numbers, as −log10 of the molar value.

Completed entries (count: 5):
- molecule: "O=C1CCC(N2Cc3cc(NCCCN4CCN(CCOc5ccc(Oc6c(-c7ccc(C(F)(F)F)cc7)sc7cc(O)ccc67)cc5)CC4)ccc3C2=O)C(=O)N1 (stereo not drawn)"
  assayTarget: "ERα (Homo sapiens, UniProt P03372)"
  pIC50: 9.00
- molecule: "O=C1CCC(N2C(=O)c3ccc(NCCCN4CCN(CCOc5ccc(Oc6c(-c7ccc(Br)cc7)sc7cc(O)ccc67)cc5)CC4)cc3C2=O)C(=O)N1 (stereo not drawn)"
  assayTarget: "ERα (Homo sapiens, UniProt P03372)"
  pIC50: 8.64
- molecule: "O=C1CCC(N2Cc3cc(N4CCN(CC5CCN(c6ccc(Oc7c(-c8ccc(Br)cc8)sc8cc(O)ccc78)cc6)CC5)CC4)ccc3C2=O)C(=O)N1 (stereo not drawn)"
  assayTarget: "ERα (Homo sapiens, UniProt P03372)"
  pIC50: 8.15
- molecule: "O=C1CCC(N2Cc3cc(N4CCN(CCCOc5ccc(Oc6c(-c7ccc(OC(F)(F)F)cc7)sc7cc(O)ccc67)cc5)CC4)c(F)cc3C2=O)C(=O)N1 (stereo not drawn)"
  assayTarget: "ERα (Homo sapiens, UniProt P03372)"
  pIC50: 7.72
- molecule: "O=C1CCC(N2Cc3cc(N4CCN(CC5CCN(c6ccc(Oc7c(-c8ccc(Br)cc8)sc8cc(O)ccc78)cc6F)CC5)CC4)ccc3C2=O)C(=O)N1 (stereo not drawn)"
  assayTarget: "ERα (Homo sapiens, UniProt P03372)"
  pIC50: 7.96

Batch: pIC50 for all items listed.
1. O=C1CCC(N2C(=O)c3ccc(NCCCN4CCCN(CCOc5ccc(Oc6c(-c7ccc(Br)cc7)sc7cc(O)ccc67)cc5)CC4)cc3C2=O)C(=O)N1 (stereo not drawn)
2. O=C1CCC(N2Cc3c(ccc(N4CCN(CCCOc5ccc(Oc6c(-c7ccc(Br)cc7)sc7cc(O)ccc67)cc5)CC4)c3F)C2=O)C(=O)N1 (stereo not drawn)
3. O=C1CCC(N2C(=O)c3ccc(N4CCN(CC5CCN(c6ccc(Oc7c(-c8ccc(F)cc8)sc8cc(O)ccc78)cc6)CC5)CC4)cc3C2=O)C(=O)N1 (stereo not drawn)
4. O=C1CCC(N2Cc3c(ccc(N4CCN(C5CCN(CCOc6ccc(Oc7c(-c8ccc(Br)cc8)sc8cc(O)ccc78)cc6)CC5)CC4)c3F)C2=O)C(=O)N1 (stereo not drawn)
5. O=C1CCC(N2C(=O)c3ccc(N4CCN(CCCCc5ccc(Oc6c(-c7ccc(Br)cc7)sc7cc(O)ccc67)cc5)CC4)cc3C2=O)C(=O)N1 (stereo not drawn)

8.62
8.08
8.15
8.54
7.50

Batch: pIC50 for all items listed.
1. O=C1CCC(N2Cc3cc(N4CCN(CCOc5ccc(Oc6c(-c7ccc(Br)cc7)sc7cc(O)ccc67)cc5)CC4)ccc3C2=O)C(=O)N1 (stereo not drawn)
2. O=C1CCC(N2C(=O)c3ccc(N4CCC(N5CC(Oc6ccc(Oc7c(-c8ccc(Br)cc8)sc8cc(O)ccc78)cc6)C5)CC4)cc3C2=O)C(=O)N1 (stereo not drawn)

8.64
7.82

----------
Biological target: UniProt:P03372
Assay: ERE luciferase reporter gene assay in T47D-KBluc cells (target engagement)
Format: cell-based
Design: T47D human breast cancer cells stably transfected with estrogen responsive element/promoter/luciferase reporter gene; host or cells: T47D-KBluc cells
Conditions: 10% FBS, 24 hours, Table 1 cereblon centric PROTACs, read-out: ER-α Luciferase IC50
Method: Chimeric molecules were assessed for target engagement in T47D cells using the commercial kit of ERE luciferase reporter gene assay. In the assay, 10% FBS was included and estrogen level was measured to be 10 pM. ERE Luciferase Assay for Compounds in Table 1-3. […]
recordedMetric: IC50

Completed entries (count: 3):
- molecule: "O=C1CCC(N2Cc3cc(OCCCOCCOc4ccc(Oc5c(-c6ccc(Br)cc6)sc6cc(O)ccc56)cc4)ccc3C2=O)C(=O)N1 (stereo not drawn) [Compound 40]"
  IC50: "3.9 nM"
- molecule: "O=C1CCC(N2C(=O)c3cccc(NCCN4CCN(CCOc5ccc(Oc6c(-c7ccc(O)cc7)sc7cc(O)ccc67)cc5)CC4)c3C2=O)C(=O)N1 (stereo not drawn) [Compound 3]"
  IC50: "0.14 nM"
- molecule: "O=C1CCC(N2C(=O)c3ccc(N4CCN(CCCOc5ccc(Oc6c(-c7ccc(Br)cc7)sc7cc(O)ccc67)cc5)CC4)cc3C2=O)C(=O)N1 (stereo not drawn) [Compound 49]"
  IC50: "17.7 nM"

Batch: IC50 for all items listed.
1. O=C1CCC(N2C(=O)c3ccc(N4CCN(CCCCCOc5ccc(Oc6c(-c7ccc(Br)cc7)sc7cc(O)ccc67)cc5)CC4)cc3C2=O)C(=O)N1 (stereo not drawn) [Compound 61]
2. O=C1CCC(N2Cc3c(OCCOCCOCCOCCOc4ccc(Oc5c(-c6ccc(Br)cc6)sc6cc(O)ccc56)cc4)cccc3C2=O)C(=O)N1 (stereo not drawn) [Compound 21]
3. O=C1CCC(N2Cc3cc(OCCCOCCCOCCCOc4ccc(Oc5c(-c6ccc(Br)cc6)sc6cc(O)ccc56)cc4)ccc3C2=O)C(=O)N1 (stereo not drawn) [Compound 36]

18.3 nM
17.4 nM
4.7 nM

----------
Biological target: UniProtKB P03372
Assay: Estrogen receptor-alpha (ERα) degradation assay in MCF7 cells using In-Cell Western assay
Assay type: cell-based
Set-up: assessed for their activity in degrading ERα in MCF-7 cells via western blot; endogenous in cells; host or cells: MCF7 cells
Conditions: ER-alpha degradation in MCF7 cells, 5 days of incubation
Method: Estrogen Receptor-Alpha (ERα) Degradation Assay Using in-Cell Western™ Assay for Table 5. Degradation of ERα by claimed compounds were determined in MCF7 cells using an In-Cell Western™ assay. […] Following 3 washes with TBST, the buffer was removed and the plates were read on an Odyssey® infrared imaging system (LI-COR®, Lincoln, Nebr.) at 700 nm and 800 nm. […] DC50 and Dmax values were determined following a 4-parameter IC50 curve fit using ACAS dose response module (McNeil & Co Inc.).
recordedMetric: DC50

- molecule: "O=C1CCC(N2Cc3nc(N4CCN(CC5CCN(c6ccc(Oc7c(-c8ccc(Br)cc8)sc8cc(O)ccc78)cc6)CC5)CC4)ccc3C2=O)C(=O)N1 (centres unmarked)"
  recordedMetric: "DC50"
  experimentalResult: "0.001 to 0.01 µM"

Batch: DC50 for all items listed.
1. O=C1CCC(N2C(=O)c3ccc(NCCCN4CCN(CCOc5ccc(Oc6c(-c7ccc(Br)cc7)sc7cc(O)ccc67)cc5)CC4)cc3C2=O)C(=O)N1 (centres unmarked)
2. O=C1CCC(N2Cc3cc(N4CCN(C5CC(Oc6ccc(Oc7c(-c8ccc(Br)cc8)sc8cc(O)ccc78)cc6)C5)CC4)ccc3C2=O)C(=O)N1 (centres unmarked)

1. 0.001 to 0.01 µM
2. 0.001 to 0.01 µM

Batch: DC50 for all items listed.
1. O=C1CCC(N2Cc3cc(N4CCN(CCC5CCN(c6ccc(Oc7c(-c8ccc(F)cc8)sc8cc(O)ccc78)cc6)CC5)CC4)ccc3C2=O)C(=O)N1 (centres unmarked)
2. O=C1CCC(N2Cc3cc(N4CCN(CC5CCN(c6ccc(Oc7c(-c8ccc(Br)cc8)sc8cc(O)ccc78)cn6)CC5)CC4)ccc3C2=O)C(=O)N1 (centres unmarked)
3. O=C1CCC(N2Cc3cc(NCCCOCCCOCCOc4ccc(Oc5c(-c6ccc(Br)cc6)sc6cc(O)ccc56)cc4)ccc3C2=O)C(=O)N1 (centres unmarked)
4. O=C1CCC(N2C(=O)c3ccc(N4CC(CN5CCCN(CCOc6ccc(Oc7c(-c8ccc(Br)cc8)sc8cc(O)ccc78)cc6)CC5)C4)cc3C2=O)C(=O)N1 (centres unmarked)
5. O=C1CCC(N2Cc3cc(N4CCC(CN5CC(c6ccc(Oc7c(-c8ccc(Br)cc8)sc8cc(O)ccc78)cc6)C5)CC4)ccc3C2=O)C(=O)N1 (centres unmarked)

["0.001 to 0.01 µM", "0.001 to 0.01 µM", "0.001 to 0.01 µM", "0.001 to 0.01 µM", "0.001 to 0.01 µM"]

Batch: DC50 for all items listed.
1. O=C1CCC(N2Cc3cc(OCCOCCOc4ccc(Oc5c(-c6ccc(Br)cc6)sc6cc(O)ccc56)cc4)ccc3C2=O)C(=O)N1 (centres unmarked)
2. O=C1CCC(N2C(=O)c3ccc(NCCCN4CCCN(CCOc5ccc(Oc6c(-c7ccc(Br)cc7)sc7cc(O)ccc67)cc5)CC4)cc3C2=O)C(=O)N1 (centres unmarked)
3. O=C1CCC(N2C(=O)c3ccc(N4CCN([C@H]5C[C@H](Oc6ccc(Oc7c(-c8ccc(Br)cc8)sc8cc(O)ccc78)cc6)C5)CC4)cc3C2=O)C(=O)N1 (some centres unmarked)
4. O=C1CCC(N2C(=O)c3ccc(N4CCN(CCCCCOc5ccc(Oc6c(-c7ccc(Br)cc7)sc7cc(O)ccc67)cc5)CC4)cc3C2=O)C(=O)N1 (centres unmarked)
5. O=C1CCC(N2C(=O)c3ccc(N4CCC(CN5CC(c6ccc(Oc7c(-c8ccc(Br)cc8)sc8cc(O)ccc78)cc6)C5)CC4)cc3C2=O)C(=O)N1 (centres unmarked)
6. O=C1CCC(N2Cc3cc(N4CCN(CC5CCN(c6ccc(Oc7c(-c8ccc(Br)cc8)sc8cc(O)ccc78)cc6F)CC5)CC4)ccc3C2=O)C(=O)N1 (centres unmarked)
7. O=C1CCC(N2Cc3cc(NCCCN4CCN(CCOc5ccc(Oc6c(-c7ccc(F)cc7)sc7cc(O)ccc67)cc5)CC4)ccc3C2=O)C(=O)N1 (centres unmarked)
8. O=C1CCC(N2C(=O)c3ccc(N4CCN(CC5CN(CCOc6ccc(Oc7c(-c8ccc(Br)cc8)sc8cc(O)ccc78)cc6)C5)CC4)cc3C2=O)C(=O)N1 (centres unmarked)

1: 0.001 to 0.01 µM; 2: 0.001 to 0.01 µM; 3: 0.01 to 0.1 µM; 4: 0.01 to 0.1 µM; 5: 0.001 to 0.01 µM; 6: 0.01 to 0.1 µM; 7: < 0.001 µM; 8: 0.001 to 0.01 µM

Batch: DC50 for all items listed.
1. O=C1CCC(N2Cc3cc(CNC(=O)C4CCN(CCOc5ccc(Oc6c(-c7ccc(Br)cc7)sc7cc(O)ccc67)cc5)CC4)ccc3C2=O)C(=O)N1 (centres unmarked)
2. COc1ccc(-c2sc3cc(O)ccc3c2Oc2ccc(N3CCC(CN4CCN(c5ccc6c(c5)CN(C5CCC(=O)NC5=O)C6=O)CC4)CC3)cc2)cc1 (centres unmarked)
3. O=C1CCC(N2Cc3c(ccc(N4CCN(CC5CCN(CCOc6ccc(Oc7c(-c8ccc(C(F)(F)F)cc8)sc8cc(O)ccc78)cc6)CC5)CC4)c3F)C2=O)C(=O)N1 (centres unmarked)
4. O=C1CCC(N2Cc3cc(N4CCN(CCCOc5ccc(Oc6c(-c7ccc(F)cc7)sc7cc(O)ccc67)cc5)CC4)ccc3C2=O)C(=O)N1 (centres unmarked)
5. O=C1CC[C@H](N2Cc3cc(CCN4CCCN(CCCCOc5ccc(Oc6c(-c7ccc(Br)cc7)sc7cc(O)ccc67)cc5)CC4)ccc3C2=O)C(=O)N1
6. O=C1CCC(N2Cc3cc(NCCCN4CCCN(CCOc5ccc(Oc6c(-c7ccc(Br)cc7)sc7cc(O)ccc67)cc5)CC4)ccc3C2=O)C(=O)N1 (centres unmarked)

["0.001 to 0.01 µM", "< 0.001 µM", "0.01 to 0.1 µM", "0.001 to 0.01 µM", "0.001 to 0.01 µM", "0.001 to 0.01 µM"]

Entry O=C1CCC(N2C(=O)c3ccc(N4CCN(CC5CCN(c6ccc(Oc7c(-c8ccc(O)cc8)sc8cc(O)ccc78)cc6)CC5)CC4)cc3C2=O)C(=O)N1 (centres unmarked) , DC50 reported as 0.01 to 0.1 µM
